Overview of reported GR80, APESV across a group of molecules:
System: APESV (windgrass)
Experiment: Post-Emergent Test III (Wheat and Barley)
Format: in vivo, Apera spica-venti
Details: effective dose for growth reduction of 80 percent, probit analysis
Experimental: Seeds of the desired test plant species were planted in Sun Gro MetroMix® 306 planting mixture, which typically has a pH of 6.0 to 6.8 and an organic matter content of about 30 percent, in plastic pots with a surface area of 103.2 square centimeters (cm^2). […] A weighed amount, determined by the highest rate to be tested, of each test compound was placed in a 25 mL glass vial and was dissolved in 4 mL of a 97:3 v/v mixture of acetone and DMSO to obtain concentrated stock solutions. […]
The response must be a number in g ai/ha with no trailing unit.

[[record]]
chemical_smiles = "Nc1c(Cl)c(C(=O)O)nc(-c2ccc(C(F)(F)F)nc2)c1Cl"
reported_measurement = 134


Lookup: Provide the reported GR80, APESV (system: APESV (windgrass)) for COC(=O)c1nc(-c2ccc(Cl)c(F)c2C)cc(N)c1Cl
Found: 90
